Molecular target: T1, Human ACVR2A (human, UniProt P27037 20-135, limits assumed); note: test concentration or dose not given here
T1 construct: also called activin receptor, type II A
T1 sequence (P27037 20-135 limits assumed): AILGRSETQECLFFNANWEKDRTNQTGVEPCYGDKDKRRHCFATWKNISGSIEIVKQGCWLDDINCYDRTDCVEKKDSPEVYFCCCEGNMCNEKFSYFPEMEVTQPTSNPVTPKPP
Assay: ELISA
attribute measured: optical density (OD)
Field: numeric (OD). Do not append units.

[
  {
    "binder": "373_B06 (antibody, V domains shown) VH: EVQLLESGGGLVQPGGSLRLSCAASGFTFSDYSMNWVRQAPGKGLEWVAGINYNGGYTGYADSVKGRFTISRDNSKNTLYLQMNSLRAEDTAVYYCARSANWHDTALDYWGQGTLVTVSS VL: DIQMTQSPSSLSASVGDRVTITCRASQSILTYVNWYQQKPGKAPKLVIYAATSRHSGVPSRFSGSGSGTDFTLTISSLQPEDFATYYCQQSYESPLTFGGGTKVEIK",
    "attribute measured": "optical density",
    "readout value": 3.44
  }
]

Attention now shifts to the item below.
INPUT: Fill in the blank: the reported optical density of 371_G05 (antibody, V domains shown) VH: EVQLLESGGGLVQPGGSLRLSCAASGFTFDSYSMNWVRQAPGKGLEWVSGINYNSGYTGYADSVKGRFTISRDNSKNTLYLQMNSLRAEDTAVYYCARSANWHDTALDYWGQGTLVTVSS VL: DIQMTQSPSSLSASVGDRVTITCRASQSISSYLNWYQQKPGKAPKLLIYAVTSRASGVPSRFSGSGSGTDFTLTISSLQPEDFATYYCQQSYSSPLTFGGGTKVEIK is ____.
OUTPUT: 1.25
